- Method description: Glutathione reactivity at pH 7.4 assessed as compound remaining measured after 120 mins by LC-MS/MS method
- Assay type: physicochemical
- Condition label: glutathione solution, read-out: Stabilty
Parameter: remaining at 2 h (%)
Form entry: value (%) — number only.

remaining at 2 h lookup needed for O=C(NO)c1ccc(CNC(=O)c2c(F)c(F)c(F)c(F)c2F)cc1 , thanks. 97.1

====

- Method description: Intrinsic clearance in mouse hepatocytes assessed per 10^6 cells measured after 120 mins by LC/MS/MS method
- Format: ADME, cell-based, Hepatocyte
- Condition label: read-out: CLH
Parameter: hepatocyte CLint (µL/min/1e6 cells)
Form entry: value (µL/min/1e6 cells) — number only.

hepatocyte CLint lookup needed for O=C(NO)c1ccc(CNC(=O)c2c(F)c(F)c(F)c(F)c2F)cc1 , thanks. 27.3

====

- Method description: Half life in mouse hepatocytes measured after 120 mins by LC/MS/MS method
- Format: ADME, cell-based, Hepatocyte
Parameter: half-life (min)
Form entry: value (min) — number only.

half-life lookup needed for O=C(NO)c1ccc(CNC(=O)c2c(F)c(F)c(F)c(F)c2F)cc1 , thanks. 50.9

====

- Subject of test: Histone deacetylase 8 (Homo sapiens, UniProt Q9BY41)
- Sequence (Q9BY41 whole entry): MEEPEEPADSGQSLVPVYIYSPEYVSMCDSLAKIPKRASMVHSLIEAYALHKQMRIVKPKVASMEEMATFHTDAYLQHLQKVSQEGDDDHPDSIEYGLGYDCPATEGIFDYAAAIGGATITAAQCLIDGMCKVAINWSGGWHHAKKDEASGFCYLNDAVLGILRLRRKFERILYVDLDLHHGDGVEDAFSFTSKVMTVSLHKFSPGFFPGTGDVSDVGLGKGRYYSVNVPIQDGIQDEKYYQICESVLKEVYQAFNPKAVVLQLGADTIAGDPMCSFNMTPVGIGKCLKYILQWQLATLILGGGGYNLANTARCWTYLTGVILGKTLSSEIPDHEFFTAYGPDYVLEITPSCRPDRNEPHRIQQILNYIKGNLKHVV
- Method description: Inhibition of recombinant full length human HDAC8 expressed in SF9 baculovirus using FAM- labelled acetylated peptide as substrate measured by Electrophoretic mobility shift assay
Assign labels as follows, please: Satisfied for IC50 below 200 nM; Not satisfied for IC50 equal to or exceeding 200 nM.

Worked set:
1) CC(C)(C)c1ccc(C(=O)N(Cc2ccc(C(=O)NO)cc2)C2CC2)cc1 :: Not satisfied
2) CC(C)(C)c1ccc(NC(=O)c2ccc(C(=O)NO)cc2)cc1 :: Satisfied
3) Cc1ccc(C(=O)Nc2ccc(C(=O)NO)cc2)cc1 :: Satisfied

Take the compound O=C(/C=C/c1ccc(CNC(=O)c2c(F)c(F)c(F)c(F)c2F)cc1)NO and say whether its IC50 is less than 200 nM. Not satisfied

Take the compound CCN(C(=O)c1ccc(C(C)(C)C)cc1)c1ccc(C(=O)NO)cc1 and say whether its IC50 is less than 200 nM. Not satisfied

Take the compound O=C(NO)c1ccc(NC(=O)c2c(F)c(F)c(F)c(F)c2F)cc1 and say whether its IC50 is less than 200 nM. Satisfied

Take the compound O=C(/C=C/c1ccc(CN(C(=O)c2c(F)c(F)c(F)c(F)c2F)C2CC2)cc1)NO and say whether its IC50 is less than 200 nM. Not satisfied

Take the compound O=C(NO)c1ccc(NC(=O)c2ccc(C3CC3)cc2)cc1 and say whether its IC50 is less than 200 nM. Satisfied

====

- System: RPMI-8226
- Method description: Cytotoxicity against human RPMI-8226 cells measured after 72 hrs by spectrophotometer method
- Format: functional, cell-based
- Condition label: RPMI-8226, 72 h
Parameter: pIC50
In plain terms, pIC50 is the concentration in mol/L turned into minus its base-10 logarithm.

1. O=C(NO)c1ccc(CNC(=O)c2c(F)c(F)c(F)c(F)c2F)cc1 :: 5.31

Please look at the following compound next.
pIC50 lookup needed for O=C(CCCCCCNC(=O)c1cnc(N(c2ccccc2)c2ccccc2Cl)nc1)NO , thanks. 5.50

====

- Subject of test: Histone deacetylase 1 (Homo sapiens)
- Sequence (Q13547 whole entry): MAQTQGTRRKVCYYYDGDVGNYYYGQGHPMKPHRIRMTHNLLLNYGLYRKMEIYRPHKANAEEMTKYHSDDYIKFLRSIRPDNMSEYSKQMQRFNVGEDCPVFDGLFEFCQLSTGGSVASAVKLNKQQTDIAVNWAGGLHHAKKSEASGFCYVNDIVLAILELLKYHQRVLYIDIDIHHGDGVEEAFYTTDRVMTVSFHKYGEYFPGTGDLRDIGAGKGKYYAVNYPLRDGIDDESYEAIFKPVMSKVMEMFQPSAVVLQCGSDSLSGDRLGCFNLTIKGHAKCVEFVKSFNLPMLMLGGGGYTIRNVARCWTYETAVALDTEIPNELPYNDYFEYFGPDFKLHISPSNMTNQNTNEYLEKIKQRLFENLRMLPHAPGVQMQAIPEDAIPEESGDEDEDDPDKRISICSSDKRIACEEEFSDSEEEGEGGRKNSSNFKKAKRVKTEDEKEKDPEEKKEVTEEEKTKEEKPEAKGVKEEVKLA
- Method description: Inhibition of recombinant full length human HDAC1 expressed in SF9 baculovirus using FAM- labelled acetylated peptide as substrate measured by Electrophoretic mobility shift assay
Parameter: IC50

IC50 lookup needed for O=C(NO)c1ccc(CNC(=O)c2c(F)c(F)c(F)c(F)c2F)cc1 , thanks. > 1000 nM

====

- Subject of test: Histone deacetylase 2 (Homo sapiens)
- Sequence (Q92769 whole entry): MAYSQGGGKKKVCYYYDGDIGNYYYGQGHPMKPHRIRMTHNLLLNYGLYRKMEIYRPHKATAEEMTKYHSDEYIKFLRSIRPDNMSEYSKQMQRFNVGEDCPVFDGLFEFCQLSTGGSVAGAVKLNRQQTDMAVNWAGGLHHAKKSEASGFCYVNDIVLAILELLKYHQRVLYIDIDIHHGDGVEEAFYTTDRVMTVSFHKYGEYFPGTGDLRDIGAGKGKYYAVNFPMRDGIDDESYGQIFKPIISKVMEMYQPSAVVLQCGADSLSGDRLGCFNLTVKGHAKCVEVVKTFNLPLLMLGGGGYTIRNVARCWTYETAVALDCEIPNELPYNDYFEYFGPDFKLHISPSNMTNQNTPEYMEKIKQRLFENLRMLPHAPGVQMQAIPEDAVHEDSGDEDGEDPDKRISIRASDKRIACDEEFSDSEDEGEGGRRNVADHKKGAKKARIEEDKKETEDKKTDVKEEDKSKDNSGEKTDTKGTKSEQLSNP
- Method description: Inhibition of recombinant full length human HDAC2 expressed in SF9 baculovirus using FAM- labelled acetylated peptide as substrate measured by Electrophoretic mobility shift assay
pIC50: −log10 of the molar value.
Parameter: pIC50

pIC50 lookup needed for O=C(NO)c1ccc(CNC(=O)c2c(F)c(F)c(F)c(F)c2F)cc1 , thanks. < 6.00

====

- Method description: Cytotoxicity against human MRC9 cells measured after 72 hrs by spectrophotometer method
- Assay type: cell-based
- Condition label: MRC9, 72 h
pIC50: −log10 of the molar value.
Parameter: pIC50

Past entries and their recorded results:
1) CC(C)(C)c1ccc(CC(=O)Nc2ccc(C(=O)NO)cc2)cc1 :: < 4.82
2) CC(C)(C)c1cccc(C(=O)Nc2ccc(C(=O)NO)cc2)c1 :: < 4.60
3) CC(C)(C)c1ccc(S(=O)(=O)Nc2ccc(C(=O)NO)cc2)cc1 :: < 4.60
4) CN(Cc1ccc(C(=O)NO)cc1)C(=O)c1c(F)c(F)c(F)c(F)c1F :: < 4.60
5) O=C(NO)c1ccc(NC(=O)c2ccc(C3CCCCC3)cc2)cc1 :: < 4.60
6) O=C(NO)c1ccc(NC(=O)c2ccc(C3CC3)cc2)cc1 :: < 4.60
7) CC(C)(C)c1ccc(NC(=O)c2ccc(C(=O)NO)cc2)cc1 :: < 4.60
8) O=C(NO)c1ccc(NC(=O)c2ccc(C(F)(F)F)cc2)cc1 :: < 5.30
9) O=C(NO)c1ccc(NC(=O)c2ccc(N3CCOCC3)cc2)cc1 :: < 4.30
10) O=C(NO)c1ccc(CN(C(=O)c2c(F)c(F)c(F)c(F)c2F)C2CC2)cc1 :: < 4.30

pIC50 lookup needed for O=C(NO)c1ccc(NC(=O)c2ccc(F)cc2)cc1 , thanks. < 4.60

pIC50 lookup needed for CCN(C(=O)c1ccc(C(C)(C)C)cc1)c1ccc(C(=O)NO)cc1 , thanks. < 4.60

pIC50 lookup needed for O=C(/C=C/c1ccc(CNC(=O)c2c(F)c(F)c(F)c(F)c2F)cc1)NO , thanks. < 4.60

pIC50 lookup needed for CC(C)(C)c1ccc(NS(=O)(=O)c2ccc(C(=O)NO)cc2)cc1 , thanks. < 4.30

pIC50 lookup needed for O=C(CCCCCCNC(=O)c1cnc(N(c2ccccc2)c2ccccc2)nc1)NO [RICOLINOSTAT] , thanks. < 4.82

====

- Subject of test: Histone deacetylase 4 (Homo sapiens, UniProt P56524)
- Sequence (P56524 whole entry): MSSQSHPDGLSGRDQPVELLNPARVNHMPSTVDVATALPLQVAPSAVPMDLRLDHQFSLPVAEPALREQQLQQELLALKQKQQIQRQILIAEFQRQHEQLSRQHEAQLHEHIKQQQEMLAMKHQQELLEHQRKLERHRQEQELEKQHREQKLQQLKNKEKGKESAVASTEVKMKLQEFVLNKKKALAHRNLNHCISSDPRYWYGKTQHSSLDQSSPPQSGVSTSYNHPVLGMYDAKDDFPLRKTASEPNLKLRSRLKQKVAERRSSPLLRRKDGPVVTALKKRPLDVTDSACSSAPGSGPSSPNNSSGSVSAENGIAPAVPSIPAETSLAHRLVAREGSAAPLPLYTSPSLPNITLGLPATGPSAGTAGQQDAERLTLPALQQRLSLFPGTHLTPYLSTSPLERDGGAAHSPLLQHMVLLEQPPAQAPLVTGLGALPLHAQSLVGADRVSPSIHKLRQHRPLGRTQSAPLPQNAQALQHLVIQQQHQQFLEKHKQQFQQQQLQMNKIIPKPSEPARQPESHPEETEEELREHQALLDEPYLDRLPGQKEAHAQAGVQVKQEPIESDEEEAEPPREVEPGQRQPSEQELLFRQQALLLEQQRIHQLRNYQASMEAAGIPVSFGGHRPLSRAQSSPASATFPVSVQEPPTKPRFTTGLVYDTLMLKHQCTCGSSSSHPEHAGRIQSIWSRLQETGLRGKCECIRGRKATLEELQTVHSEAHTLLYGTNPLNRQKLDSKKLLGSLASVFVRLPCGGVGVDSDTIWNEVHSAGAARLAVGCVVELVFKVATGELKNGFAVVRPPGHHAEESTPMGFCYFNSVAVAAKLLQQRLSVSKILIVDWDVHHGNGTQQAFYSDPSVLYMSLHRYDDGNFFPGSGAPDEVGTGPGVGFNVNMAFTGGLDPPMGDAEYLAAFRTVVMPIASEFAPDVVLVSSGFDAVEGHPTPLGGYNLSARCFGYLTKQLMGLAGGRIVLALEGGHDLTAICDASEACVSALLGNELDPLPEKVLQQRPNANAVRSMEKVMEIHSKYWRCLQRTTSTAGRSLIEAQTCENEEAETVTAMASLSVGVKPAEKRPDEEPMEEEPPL
- Method description: Inhibition of recombinant full length human HDAC4 expressed in SF9 baculovirus using FAM- labelled acetylated peptide as substrate measured by Electrophoretic mobility shift assay
pIC50: −log10 of the molar value.
Parameter: pIC50

pIC50 lookup needed for O=C(NO)c1ccc(CNC(=O)c2c(F)c(F)c(F)c(F)c2F)cc1 , thanks. < 6.00

====

The compounds listed here are annotated with their pIC50.
- Subject of test: Protein deacetylase HDAC6 (Homo sapiens)
- Sequence (Q9UBN7 whole entry): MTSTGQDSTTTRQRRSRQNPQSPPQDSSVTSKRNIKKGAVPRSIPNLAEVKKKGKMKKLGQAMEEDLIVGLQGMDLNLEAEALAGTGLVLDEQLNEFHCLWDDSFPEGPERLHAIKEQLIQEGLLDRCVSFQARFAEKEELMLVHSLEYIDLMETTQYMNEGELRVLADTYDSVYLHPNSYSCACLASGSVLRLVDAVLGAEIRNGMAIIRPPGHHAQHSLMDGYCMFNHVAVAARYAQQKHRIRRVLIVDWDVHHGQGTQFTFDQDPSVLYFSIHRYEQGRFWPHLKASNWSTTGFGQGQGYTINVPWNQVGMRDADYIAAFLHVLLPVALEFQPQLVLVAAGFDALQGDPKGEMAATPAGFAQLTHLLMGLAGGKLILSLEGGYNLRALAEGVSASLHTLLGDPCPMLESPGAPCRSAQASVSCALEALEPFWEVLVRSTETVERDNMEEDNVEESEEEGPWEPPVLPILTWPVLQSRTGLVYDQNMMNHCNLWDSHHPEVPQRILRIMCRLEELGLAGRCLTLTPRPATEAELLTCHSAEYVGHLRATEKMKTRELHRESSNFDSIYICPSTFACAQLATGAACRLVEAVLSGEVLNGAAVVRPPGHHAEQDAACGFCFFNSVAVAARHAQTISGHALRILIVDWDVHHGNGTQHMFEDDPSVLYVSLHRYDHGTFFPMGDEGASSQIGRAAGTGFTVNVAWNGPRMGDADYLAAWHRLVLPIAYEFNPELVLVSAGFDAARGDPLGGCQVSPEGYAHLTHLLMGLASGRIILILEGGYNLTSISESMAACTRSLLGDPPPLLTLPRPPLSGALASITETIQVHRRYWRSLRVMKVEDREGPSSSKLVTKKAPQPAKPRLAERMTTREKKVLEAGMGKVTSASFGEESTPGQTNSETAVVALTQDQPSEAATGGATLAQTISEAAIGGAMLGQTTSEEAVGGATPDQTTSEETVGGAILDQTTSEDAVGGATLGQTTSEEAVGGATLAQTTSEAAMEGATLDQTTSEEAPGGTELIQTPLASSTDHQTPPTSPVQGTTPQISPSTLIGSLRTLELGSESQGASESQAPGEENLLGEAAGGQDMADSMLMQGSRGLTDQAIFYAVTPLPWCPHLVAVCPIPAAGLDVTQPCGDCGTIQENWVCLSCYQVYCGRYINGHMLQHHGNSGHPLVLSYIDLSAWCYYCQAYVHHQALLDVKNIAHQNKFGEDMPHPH
- Method description: Inhibition of recombinant full length human HDAC6 expressed in SF9 baculovirus using FAM- labelled acetylated peptide as substrate measured by Electrophoretic mobility shift assay
In plain terms, pIC50 is the concentration in mol/L turned into minus its base-10 logarithm.

Past entries and their recorded results:
1. O=C(NO)c1ccc(NC(=O)c2ccc(C3CCCCC3)cc2)cc1 :: 7.58
2. O=C(NO)c1ccc(NC(=O)c2ccc(N3CCOCC3)cc2)cc1 :: 7.02

Please look at the following compound next.
pIC50 lookup needed for CC(C)(C)c1ccc(S(=O)(=O)NCc2ccc(C(=O)NO)cc2)cc1 , thanks. 7.38

====

- System: Fibroblast
- Method description: Cytotoxicity against pooled human fibroblasts measured after 72 hrs by spectrophotometer method
- Assay type: cell-based
Parameter: pIC50
In plain terms, pIC50 is the concentration in mol/L turned into minus its base-10 logarithm.

1. O=C(CCCCCCNC(=O)c1cnc(N(c2ccccc2)c2ccccc2Cl)nc1)NO [CITARINOSTAT] :: 5.13

pIC50 lookup needed for O=C(NO)c1ccc(CNC(=O)c2c(F)c(F)c(F)c(F)c2F)cc1 , thanks. 4.84

====

- Method description: Glutathione reactivity at pH 7.4 assessed as compound remaining measured after 30 mins by LC-MS/MS method
- Assay type: physicochemical
- Condition label: glutathione solution, read-out: Stabilty
Parameter: remaining at 0.5 h (%)
Form entry: value (%) — number only.

remaining at 0.5 h lookup needed for O=C(NO)c1ccc(CNC(=O)c2c(F)c(F)c(F)c(F)c2F)cc1 , thanks. 96.4

====

- Method description: AUC (last) in CD1 mouse at 20 mg/kg, ip measured after 24 hrs by LC/MS/MS method
- Assay type: ADME, organism-based
- Parameters: route intraperitoneal, dose 20 mg/kg, time 24 hrs
- Condition label: in vivo
Parameter: AUC(0-t) at 24 h (ng·h/mL)
Form entry: value (ng·h/mL) — number only.

AUC(0-t) at 24 h lookup needed for O=C(NO)c1ccc(CNC(=O)c2c(F)c(F)c(F)c(F)c2F)cc1 , thanks. 190

====

- Subject of test: Histone deacetylase 3 (Homo sapiens)
- Sequence (O15379 whole entry): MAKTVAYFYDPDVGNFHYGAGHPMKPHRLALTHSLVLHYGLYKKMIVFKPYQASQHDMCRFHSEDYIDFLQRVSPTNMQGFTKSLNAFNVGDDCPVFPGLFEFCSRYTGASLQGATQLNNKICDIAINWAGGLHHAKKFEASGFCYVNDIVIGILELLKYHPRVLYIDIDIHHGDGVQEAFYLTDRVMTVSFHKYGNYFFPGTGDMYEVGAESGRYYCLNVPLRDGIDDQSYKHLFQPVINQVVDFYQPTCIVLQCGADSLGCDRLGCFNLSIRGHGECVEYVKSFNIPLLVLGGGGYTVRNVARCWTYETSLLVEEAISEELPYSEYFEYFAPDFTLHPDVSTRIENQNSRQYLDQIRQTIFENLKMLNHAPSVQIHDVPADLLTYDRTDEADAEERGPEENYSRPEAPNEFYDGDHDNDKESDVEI
- Method description: Inhibition of recombinant full length human HDAC3 expressed in SF9 baculovirus using FAM- labelled acetylated peptide as substrate measured by Electrophoretic mobility shift assay
The molecules listed here are annotated with their IC50.

Past entries and their recorded results:
1. O=C(NO)c1ccc(NC(=O)c2c(F)c(F)c(F)c(F)c2F)cc1 :: 3.13 nM
2. O=C(NO)c1ccc(CN(C(=O)c2c(F)c(F)c(F)c(F)c2F)C2CC2)cc1 :: > 1000 nM
3. CC(C)(C)c1ccc(NC(=O)c2ccc(C(=O)NO)cc2)cc1 :: 10.9 nM

IC50 lookup needed for CC(C)(C)c1ccc(C(=O)N(Cc2ccc(C(=O)NO)cc2)C2CC2)cc1 , thanks. 323 nM

IC50 lookup needed for O=C(/C=C/c1ccc(CNC(=O)c2c(F)c(F)c(F)c(F)c2F)cc1)NO , thanks. 13 nM

IC50 lookup needed for CC(C)(C)c1ccc(CC(=O)Nc2ccc(C(=O)NO)cc2)cc1 , thanks. 3.74 nM

IC50 lookup needed for O=C(NO)c1ccc(NC(=O)c2ccc(C3CC3)cc2)cc1 , thanks. 11.9 nM

IC50 lookup needed for O=C(NO)c1ccc(NC(=O)c2ccc(C3CCCCC3)cc2)cc1 , thanks. 159 nM

IC50 lookup needed for O=C(NO)c1ccc(CNC(=O)c2c(F)c(F)c(F)c(F)c2F)cc1 , thanks. 215 nM

IC50 lookup needed for CC(C)N(Cc1ccc(C(=O)NO)cc1)C(=O)c1c(F)c(F)c(F)c(F)c1F , thanks. > 1000 nM

IC50 lookup needed for O=C(NO)c1ccc(NC(=O)c2ccc(F)cc2)cc1 , thanks. 45.4 nM

Origin of measurements: ChEMBL document CHEMBL4706499
